- Assay System: T1, CCX CKR (Homo sapiens, UniProt Q9NPB9)
- T1 construct: Full length CCX CKR expression constructs were made in pIRESpuro expression vector; expressed in transfected cells
- T1 sequence (Q9NPB9 1-350): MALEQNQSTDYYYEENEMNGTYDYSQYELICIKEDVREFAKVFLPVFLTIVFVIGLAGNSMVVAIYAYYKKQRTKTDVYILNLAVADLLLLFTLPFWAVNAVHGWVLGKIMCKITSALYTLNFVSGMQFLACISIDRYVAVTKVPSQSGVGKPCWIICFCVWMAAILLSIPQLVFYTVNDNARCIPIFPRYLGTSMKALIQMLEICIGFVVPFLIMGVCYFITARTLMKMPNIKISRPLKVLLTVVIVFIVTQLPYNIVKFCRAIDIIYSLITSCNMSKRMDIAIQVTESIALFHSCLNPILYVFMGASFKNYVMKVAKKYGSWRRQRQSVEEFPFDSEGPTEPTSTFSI
- Experimental Details: Ligand binding fingerprint: displacement of 125I-ELC from CCX CKR stable transfectants by cold chemokines
- Conditions Used: cold competitor 200 nM; human and murine ELC, SLC, TECK; comparable with 125I-TECK
Reported Property: Binding to CCX CKR by displacement of 125I-labeled ELC

Molecule	Result
SLC: secondary lymphoid-tissue chemokine, recombinant (protein) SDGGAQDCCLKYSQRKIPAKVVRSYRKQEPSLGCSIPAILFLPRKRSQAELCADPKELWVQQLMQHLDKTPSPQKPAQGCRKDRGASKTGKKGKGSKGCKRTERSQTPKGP	bound well
TECK: thymus expressed chemokine, recombinant (protein) QGVFEDCCLAYHYPIGWAVLRRAWTYRIQEVSGSCNLPAAIFYLPKRHRKVCGNPKSREVQRAMKLLDARNKVFAKLHHNTQTFQAGPHAVKKLSSGNSKLSSSKFSNPISSSKRNVSLLISANSGL	bound well
